ASSAY_COMMENT: Inhibition of ABCB1 in human KBVIN cells assessed as potentiation of paclitaxel-induced cytotoxicity by measuring paclitaxel IC50 at 8 uM after 72 hrs by SRB assay (Rvb = 1196.09 +/- 44.8 nM)
ENDPOINT_LABEL: IC50 (nM)
State just the number; it will be interpreted in nM.

Prompt: Need IC50, item Cc1cccc(-c2coc3c(c(O)cc4occ(-c5cccc(C)c5)c(=O)c43)c2=O)c1
Completion: 63

###

ASSAY_COMMENT: Inhibition of full length human ABCB1 expressed in Flp-In-293 cells assessed as potentiation of paclitaxel-induced cytotoxicity by measuring paclitaxel IC50 at 10 uM after 72 hrs by SRB assay (Rvb = 644.78 +/- 2.6 nM)
ENDPOINT_LABEL: IC50 (µM)
State just the number; it will be interpreted in µM.

Completed entries (count: 2):
COc1ccc(-c2coc3c(c(O)cc4occ(-c5ccc(OC)cc5)c(=O)c43)c2=O)cc1    0.079
Cc1cccc(-c2coc3c(c(O)cc4occ(-c5cccc(C)c5)c(=O)c43)c2=O)c1    0.04

Kindly review the next compound as well.
Prompt: Need IC50, item COc1ccc(-c2coc3c(c(O)cc4occ(-c5ccc(OC)c(OC)c5)c(=O)c43)c2=O)cc1OC
Completion: 0.068
